study_system: full-length recombinant rat vitamin D receptor (Rattus norvegicus)
Construct: Full-length recombinant rat receptor was expressed in E. coli BL21 (DE3) Codon Plus RIL cells; histidine tag (C)
Sequence (P13053 whole entry): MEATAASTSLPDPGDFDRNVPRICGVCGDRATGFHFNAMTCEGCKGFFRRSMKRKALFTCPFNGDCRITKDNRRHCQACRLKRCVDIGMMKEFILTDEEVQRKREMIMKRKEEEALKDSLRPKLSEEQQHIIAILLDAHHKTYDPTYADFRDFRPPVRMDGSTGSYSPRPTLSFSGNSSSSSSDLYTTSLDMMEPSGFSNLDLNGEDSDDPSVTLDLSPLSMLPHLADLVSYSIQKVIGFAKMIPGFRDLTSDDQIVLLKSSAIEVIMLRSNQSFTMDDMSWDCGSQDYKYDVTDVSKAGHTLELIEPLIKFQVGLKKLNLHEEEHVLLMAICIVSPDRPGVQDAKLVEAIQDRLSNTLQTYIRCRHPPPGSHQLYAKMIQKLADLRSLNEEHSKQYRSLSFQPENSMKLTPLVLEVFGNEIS
assay_name: Vitamin D receptor binding, competition with [3H]-1,25(OH)2D3
recorded_conditions: full-length recombinant rat vitamin D receptor; FIG. 1; read-out: Ki, competition with [3H]-1,25(OH)2D3 for binding to VDR
value_kind: pKi
Answers are plain numbers, as −log10 of the molar value.

[Q] # lookup: pKi of C[C@H](CCCC(C)(C)O)C1CCC2/C(=C/C=C(CCO)CCO)CCC[C@@]21C (stereo partly shown)
[A] 9.40

---

Tested on: Human promyelocyte leukemia (HL60) cells
assay_name: HL-60 differentiation (nitro blue tetrazolium reduction)
Assay type: cell-based
recorded_conditions: four days, FIG. 2
value_kind: EC50 (nM)
Give bare numbers, in nM.

[Q] Reported EC50, compound C=C1/C(=C\C=C2/CCC[C@]3(C)[C@@H]([C@H](C)CCCC(C)(C)O)CC[C@@H]23)C[C@@H](O)C[C@@H]1O [1α,25-dihydroxyvitamin D3, reference compound] : ____
[A] 3

Data provenance is patent US8785422B2.
